protocolSummary: physchem
Assay type: physicochemical
appliedConditions: water, Solubility of Itraconazole
readoutName: solubility (µg/mL)
Please reply with the bare figure in µg/mL and do not write the unit itself.

Field solubility (entry CCC(C)n1ncn(-c2ccc(N3CCN(c4ccc(OCC5COC(Cn6cncn6)(c6ccc(Cl)cc6Cl)O5)cc4)CC3)cc2)c1=O (stereo not shown) ) reads 10
